Reported IC50 at 72 h by item:
# Assay Text: Cytotoxicity against human L02 measured after 72 hrs by MTT assay
# Assay type: toxicity
# Setup Conditions: L02 cells
Endpoint Name: IC50 at 72 h (µM)

{"Smiles": "O=c1[nH]cc(F)c(=O)[nH]1", "Readout Number": 25.9}
{"Smiles": "COc1ccc(Sc2cccc(C(=O)O[C@@H]3O[C@@H]4O[C@]5(C)CC[C@H]6[C@H](C)[C@H](OC(=O)c7cccc(Sc8ccc(OC)cc8)c7)C[C@@H]([C@H]3C)[C@@]46OO5)c2)cc1", "Readout Number": 69.2}
{"Smiles": "C[C@@H]1[C@H](O)C[C@H]2[C@@H](C)C(=O)O[C@@H]3O[C@]4(C)CC[C@@H]1[C@]32OO4", "Readout Number": 146}
{"Smiles": "COc1ccc(Sc2cccc(C(=O)O[C@@H]3O[C@@H]4O[C@]5(C)CC[C@H]6[C@H](C)[C@H](O)C[C@@H]([C@H]3C)[C@@]46OO5)c2)cc1", "Readout Number": 80.2}
